Data credit: patent US20120245137A1

molecular target: T-type calcium channel (Homo sapiens, UniProt O43497); assay: T-type channel blocking, FLIPR data (Table 6); details: CAv3.1
Endpoint: IC50 (µM)

Before answering, review these 2 worked examples.
| Compound | Unit abbreviation | Recorded measurement |
| --- | --- | --- |
| O=C(NC[C@H]1C[C@H](S(=O)(=O)c2cccc(OC(F)(F)F)c2)C1)c1ccc(OCC(F)(F)F)nc1 | µM | 3.02 |
| CC(C)(C1CC(CNC(=O)c2ccnc(C(F)(F)F)c2)C1)S(=O)(=O)c1cccc(C(F)(F)F)c1 (stereo not shown) | µM | 8.71 |

I. CC(C)([C@H]1C[C@H](NS(=O)(=O)c2ccc(F)c(Cl)c2)C1)S(=O)(=O)c1cc(F)cc(C(F)(F)F)c1
II. CC(C)([C@H]1C[C@H](NC(=O)c2ccc(Cl)cn2)C1)S(=O)(=O)c1cccc(C(F)(F)F)c1
III. O=C(NC[C@H]1C[C@H](S(=O)(=O)c2cccc(OC(F)(F)F)c2)C1)c1ccc(C(F)(F)F)nc1
IV. CC(C)([C@H]1C[C@@H](CNC(=O)c2ccc(F)c(Cl)c2)C1)S(=O)(=O)c1cccc(C(F)(F)F)c1
List these items ordered by IC50, big to small. Sort and list the labels as requested.
III, II, I, IV

====

molecular target: N-type calcium channel subunits (α1B, α2δ, and β3a) (Homo sapiens, UniProt Q00975); test: Block of Cav2.2 channel, whole cell voltage clamp, manual and PatchXpress; format: cell-based; conditions: Table 5; table follows Assay Example 3 (whole cell voltage clamp / PatchXpress); assay not given
Sequence (Q00975 whole entry): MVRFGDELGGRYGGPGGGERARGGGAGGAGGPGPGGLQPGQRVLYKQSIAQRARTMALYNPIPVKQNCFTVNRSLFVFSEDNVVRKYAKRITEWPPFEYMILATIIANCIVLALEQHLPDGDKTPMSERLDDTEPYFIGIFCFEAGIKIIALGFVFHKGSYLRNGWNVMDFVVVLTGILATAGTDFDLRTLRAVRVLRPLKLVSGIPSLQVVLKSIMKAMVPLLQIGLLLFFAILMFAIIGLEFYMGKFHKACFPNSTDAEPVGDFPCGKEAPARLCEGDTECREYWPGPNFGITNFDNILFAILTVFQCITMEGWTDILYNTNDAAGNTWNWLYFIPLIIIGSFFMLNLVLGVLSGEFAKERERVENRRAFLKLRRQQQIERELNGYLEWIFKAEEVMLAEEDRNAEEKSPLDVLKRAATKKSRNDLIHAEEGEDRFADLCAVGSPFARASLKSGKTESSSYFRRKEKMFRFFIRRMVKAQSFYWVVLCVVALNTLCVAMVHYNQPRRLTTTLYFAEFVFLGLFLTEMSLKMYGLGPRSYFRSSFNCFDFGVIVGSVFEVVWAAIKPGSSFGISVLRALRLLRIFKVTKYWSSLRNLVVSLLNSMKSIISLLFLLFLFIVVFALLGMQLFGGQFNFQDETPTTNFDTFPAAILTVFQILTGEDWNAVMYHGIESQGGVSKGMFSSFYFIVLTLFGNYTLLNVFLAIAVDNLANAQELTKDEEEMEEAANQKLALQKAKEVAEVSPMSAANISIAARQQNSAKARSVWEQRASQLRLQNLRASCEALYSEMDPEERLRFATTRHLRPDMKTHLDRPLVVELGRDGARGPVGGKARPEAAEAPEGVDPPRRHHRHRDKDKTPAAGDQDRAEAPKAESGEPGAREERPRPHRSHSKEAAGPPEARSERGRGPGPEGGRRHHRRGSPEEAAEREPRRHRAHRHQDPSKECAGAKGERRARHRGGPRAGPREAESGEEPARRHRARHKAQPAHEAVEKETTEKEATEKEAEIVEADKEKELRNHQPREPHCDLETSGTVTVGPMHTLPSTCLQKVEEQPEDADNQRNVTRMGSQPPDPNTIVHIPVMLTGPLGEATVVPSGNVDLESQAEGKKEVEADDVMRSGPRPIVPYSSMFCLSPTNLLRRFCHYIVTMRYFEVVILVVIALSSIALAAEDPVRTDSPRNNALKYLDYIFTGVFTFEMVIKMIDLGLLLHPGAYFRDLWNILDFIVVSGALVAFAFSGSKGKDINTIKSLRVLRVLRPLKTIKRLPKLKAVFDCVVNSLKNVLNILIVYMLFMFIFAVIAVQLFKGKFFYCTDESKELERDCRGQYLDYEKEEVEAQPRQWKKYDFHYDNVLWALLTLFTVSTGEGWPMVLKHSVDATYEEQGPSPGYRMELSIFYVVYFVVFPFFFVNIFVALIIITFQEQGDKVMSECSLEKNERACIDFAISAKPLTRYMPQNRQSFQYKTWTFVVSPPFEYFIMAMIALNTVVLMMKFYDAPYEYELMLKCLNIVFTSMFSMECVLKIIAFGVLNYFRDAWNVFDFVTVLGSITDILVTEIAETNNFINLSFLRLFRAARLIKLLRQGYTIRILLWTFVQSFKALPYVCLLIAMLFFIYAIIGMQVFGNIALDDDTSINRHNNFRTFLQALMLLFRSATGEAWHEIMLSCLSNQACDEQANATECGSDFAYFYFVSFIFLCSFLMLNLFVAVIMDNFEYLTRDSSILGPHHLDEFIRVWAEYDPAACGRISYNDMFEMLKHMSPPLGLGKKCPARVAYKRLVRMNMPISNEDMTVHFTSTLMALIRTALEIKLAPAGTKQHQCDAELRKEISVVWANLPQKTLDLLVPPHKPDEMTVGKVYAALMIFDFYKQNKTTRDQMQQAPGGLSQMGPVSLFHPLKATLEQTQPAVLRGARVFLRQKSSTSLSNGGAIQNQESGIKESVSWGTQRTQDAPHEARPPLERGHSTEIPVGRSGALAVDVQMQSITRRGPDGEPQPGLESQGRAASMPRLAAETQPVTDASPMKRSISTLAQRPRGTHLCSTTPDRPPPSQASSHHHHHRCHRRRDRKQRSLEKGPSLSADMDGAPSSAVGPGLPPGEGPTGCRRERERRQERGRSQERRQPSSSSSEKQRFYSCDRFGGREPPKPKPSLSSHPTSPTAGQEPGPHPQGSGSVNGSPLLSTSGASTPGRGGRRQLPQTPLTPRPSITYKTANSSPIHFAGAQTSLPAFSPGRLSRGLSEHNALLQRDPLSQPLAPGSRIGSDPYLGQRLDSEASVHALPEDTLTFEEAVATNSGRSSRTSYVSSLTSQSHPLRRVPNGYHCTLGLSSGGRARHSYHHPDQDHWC
Sequence (P54289 25-1103 partner): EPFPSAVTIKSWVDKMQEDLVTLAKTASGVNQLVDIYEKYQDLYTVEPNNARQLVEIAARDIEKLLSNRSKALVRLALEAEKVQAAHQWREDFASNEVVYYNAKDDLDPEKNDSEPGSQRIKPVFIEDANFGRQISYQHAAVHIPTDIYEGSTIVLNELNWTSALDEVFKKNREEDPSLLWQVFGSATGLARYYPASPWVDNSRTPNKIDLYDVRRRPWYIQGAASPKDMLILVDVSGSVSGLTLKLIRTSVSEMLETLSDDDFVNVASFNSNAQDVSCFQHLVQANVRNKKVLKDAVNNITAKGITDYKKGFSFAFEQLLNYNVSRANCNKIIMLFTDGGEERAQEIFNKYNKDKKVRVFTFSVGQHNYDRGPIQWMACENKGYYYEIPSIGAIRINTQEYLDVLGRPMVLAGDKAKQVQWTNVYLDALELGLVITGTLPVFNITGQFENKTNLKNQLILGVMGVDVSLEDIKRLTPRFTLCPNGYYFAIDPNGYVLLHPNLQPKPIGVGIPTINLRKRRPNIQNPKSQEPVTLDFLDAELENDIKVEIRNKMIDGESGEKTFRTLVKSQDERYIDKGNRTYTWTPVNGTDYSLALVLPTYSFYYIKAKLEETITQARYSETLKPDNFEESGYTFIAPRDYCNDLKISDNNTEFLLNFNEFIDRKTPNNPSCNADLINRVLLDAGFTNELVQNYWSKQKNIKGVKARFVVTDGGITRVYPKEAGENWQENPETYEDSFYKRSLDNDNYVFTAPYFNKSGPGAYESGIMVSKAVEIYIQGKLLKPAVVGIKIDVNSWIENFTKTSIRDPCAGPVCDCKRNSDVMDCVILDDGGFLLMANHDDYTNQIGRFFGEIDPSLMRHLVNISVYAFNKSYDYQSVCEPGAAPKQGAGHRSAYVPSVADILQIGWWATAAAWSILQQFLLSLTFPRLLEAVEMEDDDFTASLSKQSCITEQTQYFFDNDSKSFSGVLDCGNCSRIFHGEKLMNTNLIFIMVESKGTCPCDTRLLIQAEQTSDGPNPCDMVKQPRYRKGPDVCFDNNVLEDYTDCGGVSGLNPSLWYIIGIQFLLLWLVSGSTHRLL
Sequence (P54284 whole entry partner): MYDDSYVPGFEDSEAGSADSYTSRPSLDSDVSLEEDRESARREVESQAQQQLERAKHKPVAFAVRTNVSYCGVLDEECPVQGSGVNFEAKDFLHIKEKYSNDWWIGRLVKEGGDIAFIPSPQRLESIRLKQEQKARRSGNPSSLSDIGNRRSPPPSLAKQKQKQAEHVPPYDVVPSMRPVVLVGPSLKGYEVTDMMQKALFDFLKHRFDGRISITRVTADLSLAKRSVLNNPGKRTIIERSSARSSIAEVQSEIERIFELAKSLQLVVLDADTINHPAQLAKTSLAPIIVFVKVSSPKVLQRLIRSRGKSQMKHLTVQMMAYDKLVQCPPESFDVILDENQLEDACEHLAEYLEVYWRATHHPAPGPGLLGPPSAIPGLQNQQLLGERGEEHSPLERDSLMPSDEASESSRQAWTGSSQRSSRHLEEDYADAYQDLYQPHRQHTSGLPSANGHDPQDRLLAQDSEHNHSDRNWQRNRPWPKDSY
Endpoint: IC50 (nM)

Before answering, review these 5 worked examples.
| Compound | Endpoint | Recorded measurement |
| --- | --- | --- |
| CCN(CC)C(=O)CN[C@H]1CC[C@@H](S(=O)(=O)c2cccc(C(F)(F)F)c2)CC1 | IC50 | 1510 |
| O=C(N[C@H]1CC[C@@H](S(=O)(=O)c2cc(F)cc(C(F)(F)F)c2)CC1)c1ccnn1CC(F)(F)F | IC50 | 2410 |
| O=C(CCC(F)(F)F)NC1CCC(S(=O)(=O)c2cccc(C(F)(F)F)c2)CC1 (stereo not shown) | IC50 | 1940 |
| Cn1nc(C(F)(F)F)cc1C(=O)N[C@H]1CC[C@@H](S(=O)(=O)c2cc(F)cc(C(F)(F)F)c2)CC1 | IC50 | 1920 |
| O=C(Nc1cncc(Cl)c1)[C@H]1C[C@H](S(=O)(=O)c2cccc(C(F)(F)F)c2)C1 | IC50 | 3430 |

1. Cc1cc(C(=O)N[C@H]2CC[C@@H](S(=O)(=O)c3cccc(C(F)(F)F)c3)CC2)c(C(F)(F)F)o1
2. CC(C)NC(=O)CN[C@H]1CC[C@@H](S(=O)(=O)c2cccc(C(F)(F)F)c2)CC1
Of the two listed items, which has the higher IC50? First: 1 Second: 2 Indicate your choice by writing its label.
2

====

target: human α1G T-type channels (Homo sapiens); test: T-type calcium channel block, whole cell patch clamp, α1G; conditions: HEK cells stably expressing human α1G; mainly non-inactivated protocol; values above 10,000 nM represented as 10000
pIC50: −log10 of the molar value.
Endpoint: pIC50

| Molecular string | pIC50 |
| --- | --- |
| O=C(N[C@H]1CC[C@@](F)(S(=O)(=O)c2cccc(C(F)(F)F)c2)CC1)[C@@H]1C[C@H](c2ccccc2)CN1 | 5.50 |

A. O=C(CCC(F)(F)F)N[C@H]1CC[C@@](F)(S(=O)(=O)c2cccc(C(F)(F)F)c2)CC1
B. CC(C)S(=O)(=O)c1cc(C(F)(F)F)cnc1C(=O)N[C@H]1C[C@H](S(=O)(=O)c2cccc(C(F)(F)F)c2)C1
C. CC(C)(CCNC(=O)c1ccc(F)cc1)S(=O)(=O)c1cccc(C(F)(F)F)c1
Put the items in order so that reported pIC50 rises from first to last. Sort and list the labels as requested.
A, B, C
(A: 5.60, B: 5.89, C: 6.46)
